assayName: qHTS assay to identify small molecule antagonists of the constitutive androstane receptor (CAR) signaling pathway - cell viability counter screen (AID 1224837); also: nearly all actives have a fitted effect of over 45% in size
conditions: HepG2-CYP2B6-hCAR viability, CellTiter-Fluor, 23 h, co-treated with 50 nM CITCO; series mostly up to 92.4 µM
Results filed as inconclusive are left out. The source made the active and inactive calls. Calls follow the shape of the dose curve; as a rule, active = well fitted cell-killing curve with a large enough effect in the repeat runs; inconclusive = weak or mixed curves, or effect the other way; inactive = flat fitted curve, though single readings scatter.
quantityName: outcome

Field: example entries. Status: answers known.
# compound, outcome
rows = [
    ("OC1C(O)C(O)C(O)C(O)C1O (centres undefined)", "inactive"),
    ("CC(C)(C)c1cc(Cc2cc(C(C)(C)C)c(O)c(C(C)(C)C)c2)cc(C(C)(C)C)c1O", "inactive"),
    ("CC(CCl)OP(=O)(OC(C)CCl)OC(C)CCl (centres undefined)", "inactive"),
    ("CN(C)c1ccc(Cc2ccc(N(C)C)cc2)cc1", "inactive"),
    ("NC(=S)NNC(N)=S", "inactive"),
    ("C=CCc1ccc(OC)c(OC)c1", "inactive"),
    ("COc1ccc([N+](=O)[O-])cc1N", "inactive"),
    ("C[C@]12CC[C@@H]3c4ccc(O)cc4CC[C@H]3[C@@H]1C[C@@H](O)[C@@H]2O", "inactive"),
    ("O=C1CCCC1", "inactive"),
    ("O=C(O)c1ccc(C(=O)O)c(C(=O)O)c1", "inactive"),
]

Bench note: what outcome did Cc1ccc(C(C)C)c(O)c1 show?
inactive

Another compound: Cc1ccc([N+](=O)[O-])cc1S(=O)(=O)O
inactive

Another compound: Clc1ccccn1
inactive

====

assayName: A CellTox Green Cytotoxicity Assay to monitor cytotoxicity in HEK293 cells - 24 hour (AID 1224875); also: nearly all actives have a fitted effect of over 45% in size
conditions: CellTox Green fluorescence; series mostly up to 76.8 µM
Records with an inconclusive call do not appear. Calls of active or inactive are those of the source. Calls come from the whole dose curve; as a rule, active = well fitted activation curve with a large enough effect in the repeat runs; inconclusive = weak or mixed curves; inactive = flat fitted curve, though single readings scatter.
quantityName: outcome

Field: example entries. Status: answers known.
# compound, quantityName, measurement
measured = [
    ("Nc1nc(N)nc(-c2ccccc2)n1", "outcome", "inactive"),
    ("N[C@H](Cc1c[nH]c2ccccc12)C(=O)O", "outcome", "inactive"),
    ("c1ccc(Oc2ccccc2)cc1", "outcome", "inactive"),
    ("CC(=O)c1ccc(O)cc1", "outcome", "inactive"),
    ("O=c1[nH]cnc2[nH]ncc12", "outcome", "inactive"),
    ("C[C@]12CC[C@@H]3c4ccc(O)cc4CC[C@H]3[C@@H]1C[C@@H](O)[C@@H]2O", "outcome", "inactive"),
    ("C=C(C)C(=O)OCC(C)C", "outcome", "inactive"),
    ("COc1ccc(CCC(C)=O)cc1", "outcome", "inactive"),
]

Bench note: what outcome did OCc1ccccc1 show?
inactive

Another compound: NC(=S)NNC(N)=S
inactive

Another compound: CC(=O)CCC=C(C)C
inactive

Another compound: CCOC(=O)n1ccn(C)c1=S
inactive

Another compound: CC1(C)NC(=O)NC1=O
inactive

Another compound: O=S(=O)(O)c1ccc(N=Nc2c(O)ccc3cc(S(=O)(=O)O)ccc23)cc1
inactive

Another compound: C[C@]12CCC(=O)C=C1CC[C@@H]1[C@@H]2[C@@H](O)C[C@@]2(C)[C@H]1CC[C@]2(O)C(=O)CO
inactive

Another compound: O=C1c2ccccc2CCc2ccccc21
inactive

Another compound: CC1(C)CC(N)CC(C)(CN)C1 (stereo not drawn)
inactive

Another compound: CCOC(=O)c1ccc(N)cc1
inactive
